Parameter: Kd. Scope: all listed entries.
Target: T1, Mouse Fc-human GDF15 (Mu IgG1Fc_Fxa_Hu GDF15) (human)
T1 construct: Whole entry is the fusion: mouse IgG1 Fc, FXa site and linker, mature human GDF15; described as dimeric; also called Murine dimeric IgG1 Fc-human GDF-15 with FXa cleavage site; control human GDF15
T1 chain: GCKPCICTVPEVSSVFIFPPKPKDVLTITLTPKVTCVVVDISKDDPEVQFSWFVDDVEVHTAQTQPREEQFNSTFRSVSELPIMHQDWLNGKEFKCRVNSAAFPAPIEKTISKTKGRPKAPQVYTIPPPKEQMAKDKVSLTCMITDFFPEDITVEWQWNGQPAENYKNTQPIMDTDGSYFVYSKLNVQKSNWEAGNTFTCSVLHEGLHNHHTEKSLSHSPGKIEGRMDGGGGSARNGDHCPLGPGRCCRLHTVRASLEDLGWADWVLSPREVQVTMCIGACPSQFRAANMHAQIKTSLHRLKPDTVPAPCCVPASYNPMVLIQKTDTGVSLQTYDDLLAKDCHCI
Assay: SPR BIAcore T200, 37C; Fc-GDF15 captured, IgG as analyte; average of runs

# binder, readingUnit, comparisonSign, Kd
data = [
    ("GDF15_004 (antibody, human IgG1, kappa, V domains shown, Tested in bivalent format) VH: QVQLVQSGAEVKKPGSSVKVSCKASGYTFSSYNIDWVRQAPGQGLEWMGQINPNNGLANYAQKFQGRVTITADESTSTAYMELSSLRSEDTAVYYCAREAITTIGAMDYWGQGTLVTVSS VL: EIVLTQSPATLSLSPGERATLSCRTSESVHSYLAWYQQKPGQAPRLLIYDASTRADGIPARFSGSGSGTDFTLTISSLEPEDFAVYYCQQFWSDPYTFGQGTKVEIKR", "nM", "=", 0.037),
    ("GDF15_0297 (antibody, mouse IgG1, kappa, V domains shown, Tested in bivalent format; also called GDF15_297) VH: QVQLQQPGAELVKPGASVKMSCKASGYPFEGWYIHWVKQRPGQGLEWMGWNNPRTGLTNHAQKFQGKVTMTRDTSSSTAYMQLSSLTSEDSAVYYCARGVGADAAFDIWGQGTTLTVSS VL: DIVMTQSPSSLSVSAGEKVTMSCRSSQSLLWKHGYNYLDWYQQKPGQPPKLLIYLDRNRAHGVPDRFTGSGSGTDFTLTISSVQAEDLAVYYCMQSFETPITFGGGTKLEIKR", "nM", "<", 0.01),
    ("GDF15_014 (antibody, human IgG1, kappa, V domains shown, Tested in bivalent format) VH: QVQLVQSGAEVKKPGSSVKVSCKASGYTFSSYNIDWVRQAPGQGLEWMGQINPINGLAFYNQKFQGRVTITADESTSTAYMELSSLRSEDTAVYYCAREAITTVGAMDYWGQGTLVTVSS VL: EIVLTQSPATLSLSPGERATLSCRTSQNVHNYLAWYQQKPGQAPRLLIYDASNRATGIPARFSGSGSGTDFTLTISSLEPEDFAVYYCQQFWSDPYTFGQGTKVEIKR", "nM", "<", 0.01),
    ("GDF15_021 (antibody, human IgG1, kappa, V domains shown, Tested in bivalent format) VH: QVQLVQSGAEVKKPGSSVKVSCKASGYTFSSYNIDWVRQAPGQGLEWMGGINPINGLIFFNQKFQGRVTITADESTSTAYMELSSLRSEDTAVYYCAREAITTVGAMDHWGQGTLVTVSS VL: EIVLTQSPATLSLSPGERATLSCRTSENVHSYLAWYQQKPGQAPRLLIYDASNLADGIPARFSGSGSGTDFTLTISSLEPEDFAVYYCQQFWSDPYTFGQGTKVEIKR", "nM", "=", 0.153),
]
